Data provenance is ChEMBL document CHEMBL6087435.

tested on: Candida albicans; experiment: Antifungal activity against Candida albicans ATCC90028 infected in Galleria mellonella larvae assessed as larval survival at 15 mg/kg measured after 6 days; assay type: functional; settings: time 6 day
// Activity lookup, one value per entry
Quantity Kind: Activity (%)

>>> readout_value("CC(C)OC(=O)OCOC(=O)[C@H]1[C@@H]2C[C@@H](O[C@@H]3O[C@H](C)[C@@H](O)[C@H](N)[C@@H]3O)/C=C/C=C/C=C/C=C/C=C/C=C/C=C/[C@H](C)[C@@H](O)[C@@H](C)[C@H](C)OC(=O)C[C@H](O)C[C@H](O)CC[C@@H](O)[C@H](O)C[C@H](O)C[C@](O)(C[C@@H]1O)O2")
10
>>> readout_value("CCOC(=O)[C@H](C)OP(=O)(OCC)Oc1ccc(COC(=O)N[C@@H]2[C@H](O)[C@H](O[C@H]3/C=C/C=C/C=C/C=C/C=C/C=C/C=C/[C@H](C)[C@@H](O)[C@@H](C)[C@H](C)OC(=O)C[C@H](O)C[C@H](O)CC[C@@H](O)[C@H](O)C[C@H](O)C[C@]4(O)C[C@H](O)[C@@H](C(=O)O)[C@H](C3)O4)O[C@H](C)[C@H]2O)cc1 (some centres undefined)")
10
>>> readout_value("CCOP(=O)(OCCOC(C)=O)Oc1ccc(COC(=O)N[C@@H]2[C@H](O)[C@H](O[C@H]3/C=C/C=C/C=C/C=C/C=C/C=C/C=C/[C@H](C)[C@@H](O)[C@@H](C)[C@H](C)OC(=O)C[C@H](O)C[C@H](O)CC[C@@H](O)[C@H](O)C[C@H](O)C[C@]4(O)C[C@H](O)[C@@H](C(=O)O)[C@H](C3)O4)O[C@H](C)[C@H]2O)cc1 (some centres undefined)")
10
>>> readout_value("CCOC(=O)[C@H](C)OP(=O)(OCC)Oc1ccc(COC(=O)OCOC(=O)[C@H]2[C@@H]3C[C@@H](O[C@@H]4O[C@H](C)[C@@H](O)[C@H](N)[C@@H]4O)/C=C/C=C/C=C/C=C/C=C/C=C/C=C/[C@H](C)[C@@H](O)[C@@H](C)[C@H](C)OC(=O)C[C@H](O)C[C@H](O)CC[C@@H](O)[C@H](O)C[C@H](O)C[C@](O)(C[C@@H]2O)O3)cc1 (some centres undefined)")
40
